- protocol: basal MM1S mitochondrial membrane potential changes, profiling panel, cell-based, JC-1 fluorescence, 24 h, 100 nL compound (AID 1170); note: test concentration not given here
- conditions: higher = more signal
assay readout: z-score
// no unit string in output, number only

Completed entries (count: 4):
- compound: "CCCCc1nc2c(c3c1C[C@H](C)OC3)CN(CCC(C)C)CC2"
  z-score: 0.301
- compound: "Cc1ccc(C2CC=C(C(=O)O)CN2S(=O)(=O)c2ccc(C)cc2)cc1 (centres undefined)"
  z-score: -0.296
- compound: "CC(C)NC(=O)[C@@H]1c2ccccc2C(=O)N(CC23CC4CC(CC(C4)C2)C3)[C@H]1c1ccc(CO)cc1"
  z-score: -0.624
- compound: "COC(=O)[C@H](C)NC(=O)[C@@H](C)CO"
  z-score: 0.384

Supply recorded z-score for C#C[C@@H](CC)O[Si](C#Cc1ccc(Oc2ccccc2)cc1)(C(C)C)C(C)C here. -1.11

For COc1ccc(-c2ccc3c(n2)CCCN3CC(O)CN2CCCc3nc(C)c(C)cc32)cc1 (centres undefined) , write its z-score. -0.975

// Input: CO[C@H]1COC(=O)[C@H](C)COC(=O)CC=C[C@@H](C)[C@H](OC)COC(=O)CC=C[C@@H]1C . Output its z-score only. 0.601

Give recorded z-score. CC(C)=C1C(=O)C(c2ccccc2)=C2CN3C(=O)N(CCc4ccccc4)C(=O)[C@]3(Cc3ccc(F)cc3)[C@H]21 -0.339

Find the measured z-score of C[C@@H]1CC[C@H]2C(=O)O[C@H](COc3ccc(C(C)(C)C)cc3)CN2[C@H]1c1ccc(Br)cc1 and report it. 0.621

---

- protocol: PSAC antagonists in infected red cells, primary screen, cell-based, P. falciparum Indochina, OD700, 1 h (AID 1154)
- conditions: P. falciparum Indochina infected RBC osmotic lysis, higher = more signal, called active from +8 up or from −8 down
assay readout: z-score
API doc: respond with a numeric literal and nothing else, no unit.

- compound: "C#C[C@@H]1Oc2ccccc2S(=O)(=O)N2CCC[C@H]12"
  endpoint value: 0.217
- compound: "CC(C)[C@@H](OCc1ccccc1)[C@H](C)C=NO[C@H](C)c1cn([C@H](CO)Cc2ccccc2)nn1"
  endpoint value: -0.146
- compound: "O=C1[C@H]2[C@H]3[C@H](O)[C@H](O)CC(=NOC[C@@H](O)COCc4ccco4)[C@H]3CC[C@H]2C(=O)N1Cc1ccc2c(c1)OCO2"
  endpoint value: 8.99
- compound: "CN(C)CCCNC(=O)[C@@H]1c2ccccc2C(=O)N(Cc2ccccc2)[C@H]1c1ccc(CO)cc1"
  endpoint value: 2.98
- compound: "COc1cccc([C@H]2Oc3ccc(OC)cc3C(=NO[C@H](C)c3cn([C@@H]4COC[C@H]4O)nn3)[C@@H]2O)c1"
  endpoint value: 0.162

Provide only the value of recorded z-score for [N-]=[N+]=NCc1ccccc1C[C@]1(C(=O)NCc2ccccc2)N=C(c2ccc(OCCCO)cc2)O[C@H]1c1ccccc1N=[N+]=[N-] 30.6

Please list z-score recorded for the compound C=CC[C@]1(C(=O)NCc2ccccc2)N=C(c2ccc(OCCCO)cc2)O[C@H]1c1ccccc1 14.6

Note z-score for the compound shown: CC(C)NC(=O)[C@@]1(c2ccc([N+](=O)[O-])cc2)CC(=O)N(CC23CC4CC(CC(C4)C2)C3)[C@@H]1c1ccc(CO)cc1I 18.8

Supply z-score value. Item: O=C1[C@H]2[C@H]3[C@H](O)[C@H](O)CC(=NOCc4ccccc4)[C@@H]3CC[C@H]2C(=O)N1C1CCCCC1 2.79

Tell me measured z-score for O=C1[C@H]2[C@H]3[C@H](O)[C@H](O)CC(=NOC[C@@H](O)COCc4ccco4)[C@@H]3CC[C@H]2C(=O)N1c1ccc(F)cc1F please. 2.3

Value source: PubChem BioAssay
